- tested target: ATP-dependent Clp protease proteolytic subunit (Bacillus subtilis (strain 168))
- measurement description: qHTS Assay for Activators of ClpP; also: the source files actives as falling curves though it sought activators and does not explain the sign; nearly all actives have a fitted effect of over 65% in size
- test context: purified B. subtilis ClpP, FRET peptide cleavage, 20 min; series mostly up to 57.5 µM
Among all 340,000 compounds or so, about 6,400 (1.9%) were called active. Another 4% or so got no clear call; they are omitted. Calls follow the shape of the dose curve; as a rule, active = well fitted falling curve with a large enough effect; inconclusive = small, poorly fitted or top-dose-only effect; inactive = no such curve, though single readings can be large or run the other way. The list comes from a sample in which actives are over-represented; it also holds close analogues and randomly drawn compounds.
Classes used: active, inactive

molecule	tested target	label
Cc1ccc(-c2ccnc3nc(Sc4ncc(C(F)(F)F)cc4Cl)nn23)cc1	ATP-dependent Clp protease proteolytic subunit (Bacillus subtilis (strain 168))	active
O=C(Nc1ccc(Cl)cc1)c1cnn2c1NC(=C1CC1)C=C2C(F)F	ATP-dependent Clp protease proteolytic subunit (Bacillus subtilis (strain 168))	inactive
CC(=O)c1ccc(S(=O)(=O)N2CCN(c3nc4c(C)c(C)ccc4cc3C#N)CC2)cc1	ATP-dependent Clp protease proteolytic subunit (Bacillus subtilis (strain 168))	inactive
Cc1cc(C)n2c(NCc3ccccc3)c(CC(C)C)nc2n1	ATP-dependent Clp protease proteolytic subunit (Bacillus subtilis (strain 168))	inactive
Cc1ccc(S(=O)(=O)N2CC3C(=O)C[C@@H](c4ccccc4Cl)N(S(=O)(=O)c4ccc(C)cc4)C3CC2c2ccccc2)cc1 (stereo partly specified)	ATP-dependent Clp protease proteolytic subunit (Bacillus subtilis (strain 168))	inactive
CCN1C(=O)[C@H]2[C@@H](c3ccc(-c4ccc(OC)cc4)cc3)N[C@@](Cc3ccccc3)(C(=O)OC)[C@H]2C1=O	ATP-dependent Clp protease proteolytic subunit (Bacillus subtilis (strain 168))	inactive
CCCc1nc2sc3c(c2c(=O)n1NC(=O)CCCl)CCCC3	ATP-dependent Clp protease proteolytic subunit (Bacillus subtilis (strain 168))	inactive
COC(=O)[C@]12CCCCC=C1N(Cc1cccc3ccccc13)C(=O)[C@H](CC(=O)N1CCOCC1)C2	ATP-dependent Clp protease proteolytic subunit (Bacillus subtilis (strain 168))	inactive
COc1ccc(OC)c(C(=O)c2ccc(Cl)cc2)c1	ATP-dependent Clp protease proteolytic subunit (Bacillus subtilis (strain 168))	inactive
CCCCN1CC(N2CCN(Cc3cccc(C)c3)CC2)CS1(=O)=O (stereo unspecified)	ATP-dependent Clp protease proteolytic subunit (Bacillus subtilis (strain 168))	inactive
C#Cc1ccc(NC(=O)C2(C)CCN2C(=O)Cc2ccc(-c3ccccc3)cc2)cc1 (stereo unspecified)	ATP-dependent Clp protease proteolytic subunit (Bacillus subtilis (strain 168))	inactive
COc1ccc2c(c1)C(=O)Nc1cc(Cl)ccc1N2	ATP-dependent Clp protease proteolytic subunit (Bacillus subtilis (strain 168))	active
COC(=O)c1cnn2c(C(F)(F)F)cc(-c3ccco3)nc12	ATP-dependent Clp protease proteolytic subunit (Bacillus subtilis (strain 168))	active
Cc1nn(-c2ncc(C(F)(F)F)cc2Cl)c(=O)n1-c1ccccc1	ATP-dependent Clp protease proteolytic subunit (Bacillus subtilis (strain 168))	inactive
Fc1ccc2cnc(-c3ccccc3)cc2c1	ATP-dependent Clp protease proteolytic subunit (Bacillus subtilis (strain 168))	inactive
Cc1ccnc(N2CCC(C(=O)NC3CCCCCC3)CC2)n1	ATP-dependent Clp protease proteolytic subunit (Bacillus subtilis (strain 168))	active
NNC(=O)C1CCCn2c1nc1sc3c(c1c2=O)CCCC3 (stereo unspecified)	ATP-dependent Clp protease proteolytic subunit (Bacillus subtilis (strain 168))	inactive
C#CCNC(=O)C[C@@H]1C[C@@]2(C(=O)OCC)CCCC=C2N(Cc2ccco2)C1=O	ATP-dependent Clp protease proteolytic subunit (Bacillus subtilis (strain 168))	inactive
COc1ccc(-n2c(-c3ccc(Cl)cc3)n[nH]c2=S)c(OC)c1	ATP-dependent Clp protease proteolytic subunit (Bacillus subtilis (strain 168))	inactive
COC(=O)[C@]12CCCCC=C1N(Cc1ccc3c(c1)OCO3)C(=O)[C@H](CC(=O)N1CCOCC1)C2	ATP-dependent Clp protease proteolytic subunit (Bacillus subtilis (strain 168))	inactive
CCCCOCCCNC(=O)C[C@@H]1C[C@@]2(C(=O)OC)CCCCC=C2N(CCC2=CCCCC2)C1=O	ATP-dependent Clp protease proteolytic subunit (Bacillus subtilis (strain 168))	inactive
OC(c1ccccc1)c1nc(-c2cnc3ccccc3c2)cs1 (stereo unspecified)	ATP-dependent Clp protease proteolytic subunit (Bacillus subtilis (strain 168))	inactive
COc1ccc(CSc2nnnn2-c2ccc(C(=O)O)cc2)cc1	ATP-dependent Clp protease proteolytic subunit (Bacillus subtilis (strain 168))	inactive
O=C(NCCCN1CCOCC1)c1cnn2c(-c3ccccc3)cc(-c3ccccc3)nc12	ATP-dependent Clp protease proteolytic subunit (Bacillus subtilis (strain 168))	active
CCN1C(=O)[C@H]2[C@@H](c3ccc(-c4ccc(F)cc4)cc3)N[C@@](Cc3ccccc3)(C(=O)OC)[C@H]2C1=O	ATP-dependent Clp protease proteolytic subunit (Bacillus subtilis (strain 168))	inactive
Cc1ccc(-c2cc(C(F)(F)F)n3ncc(C(=O)N4CCCCC4c4cccnc4)c3n2)cc1 (stereo unspecified)	ATP-dependent Clp protease proteolytic subunit (Bacillus subtilis (strain 168))	inactive
CN(Cc1ccccc1F)c1cc2c(c3c1ccn3C)C1CCC2O1 (stereo unspecified)	ATP-dependent Clp protease proteolytic subunit (Bacillus subtilis (strain 168))	inactive
CCOC(=O)c1c(NC(=O)COc2cc(C)ccc2C(C)C)sc(C)c1C	ATP-dependent Clp protease proteolytic subunit (Bacillus subtilis (strain 168))	inactive
O=C(c1ccco1)N(Cc1cccs1)c1ccc(O)cc1	ATP-dependent Clp protease proteolytic subunit (Bacillus subtilis (strain 168))	inactive
CCC(C)CN1C(=O)CN(S(C)(=O)=O)CC1(C)C(=O)Nc1ccc2c(c1)OCCO2 (stereo unspecified)	ATP-dependent Clp protease proteolytic subunit (Bacillus subtilis (strain 168))	inactive
COc1ccc2c(CN3CCN(S(=O)(=O)c4cccs4)CC3)cc(=O)oc2c1	ATP-dependent Clp protease proteolytic subunit (Bacillus subtilis (strain 168))	inactive
Cc1ccc(F)c(S(=O)(=O)NC(=O)C2(C)CCN2C(=O)CCc2cccs2)c1 (stereo unspecified)	ATP-dependent Clp protease proteolytic subunit (Bacillus subtilis (strain 168))	inactive
Cc1ccc([C@H]2N[C@]3(CCCN(Cc4ccccc4)C3=O)[C@H]3C(=O)N(Cc4ccccc4)C(=O)[C@@H]23)cc1	ATP-dependent Clp protease proteolytic subunit (Bacillus subtilis (strain 168))	inactive
CCc1nc2ccc(C(=O)N(C)Cc3ccco3)cn2c1N(C)C(=O)Cc1ccccc1	ATP-dependent Clp protease proteolytic subunit (Bacillus subtilis (strain 168))	inactive
CCN(CC(=O)Nc1ccccc1OC)C(=O)Cn1cnc2ccccc2c1=O	ATP-dependent Clp protease proteolytic subunit (Bacillus subtilis (strain 168))	inactive
O=c1cc(CN2CCN(S(=O)(=O)/C=C/c3ccccc3)CC2)c2ccc(O)cc2o1	ATP-dependent Clp protease proteolytic subunit (Bacillus subtilis (strain 168))	active
O=C(NCc1ccco1)c1cnn2c(C(F)(F)F)cc(-c3ccco3)nc12	ATP-dependent Clp protease proteolytic subunit (Bacillus subtilis (strain 168))	inactive
COc1ccc(CN(Cc2ccccc2)C(=O)c2ccc(O)cc2)cc1COc1ccc(NC(C)=O)cc1	ATP-dependent Clp protease proteolytic subunit (Bacillus subtilis (strain 168))	inactive
Cn1c(NN)nc2sc3c(c2c1=O)CCC3	ATP-dependent Clp protease proteolytic subunit (Bacillus subtilis (strain 168))	active
Cc1ccc(-c2nc3c(Cl)cc(C(F)(F)F)cn3c2Cc2cccc(Cl)c2)cc1	ATP-dependent Clp protease proteolytic subunit (Bacillus subtilis (strain 168))	inactive
CC(C)(C)NC(=O)COc1ccc(CNc2ccc3[nH]c(=O)[nH]c3c2)cc1	ATP-dependent Clp protease proteolytic subunit (Bacillus subtilis (strain 168))	active
